B1: CDC25A (parent)
chain: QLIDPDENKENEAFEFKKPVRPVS

variants of: B1; test: protein stability index of a GFP-peptide fusion (GPS, HEK-293T) (PSI 1-6); higher = more stable; details: c terminus: a fixed tail appended;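 also: lentivirally expressed fusions sorted by FACS into six bins by GFP to DsRed ratio, PSI derived from sequencing read proportions per bin multiplied by bin number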
Quick rule: protein stability index of at least 4 means met, below that means not met.

Record excerpt, results attached:
query.sequence	class.name
QLIDPDEVKENEAFEFKKPVRPVS [N8V]	met
QLIDPDENKENEAFEMKKPVRPVS [F16M]	not met
QNIDPDENKENEAFEFKKPVRPVS [L2N]	met
QLIDPDENKENEAFEFFKPVRPVS [K17F]	not met
QLIDPDENRENEAFEFKKPVRPVS [K9R]	met
QLIDPDENKENEAFEFKKPVRKVS [P22K]	not met

**Q:** Test whether the variant QLIDPDENKENEAFEFKKPVRNVS [P22N] records protein stability index of 4 or higher.
**A:** met

**Q:** Test whether the variant QLIDPDENKENEAFEFKKPVRPVG [S24G] records protein stability index of 4 or higher.
**A:** not met

**Q:** Test whether the variant QLIDPDENKENEAFEFKKPVRPSS [V23S] records protein stability index of 4 or higher.
**A:** not met

**Q:** Test whether the variant QLIDPDENKENEAFEFYKPVRPVS [K17Y] records protein stability index of 4 or higher.
**A:** not met

**Q:** Test whether the variant QLIDPDENKENEHFEFKKPVRPVS [A13H] records protein stability index of 4 or higher.
**A:** not met

**Q:** Test whether the variant QAIDPDENKENEAFEFKKPVRPVS [L2A] records protein stability index of 4 or higher.
**A:** met

**Q:** Test whether the variant QLICPDENKENEAFEFKKPVRPVS [D4C] records protein stability index of 4 or higher.
**A:** not met
